biological target: human MC4R receptor (human, UniProt P32245 1-332); assay: cell-based or functional assay
Sequence (P32245 whole entry): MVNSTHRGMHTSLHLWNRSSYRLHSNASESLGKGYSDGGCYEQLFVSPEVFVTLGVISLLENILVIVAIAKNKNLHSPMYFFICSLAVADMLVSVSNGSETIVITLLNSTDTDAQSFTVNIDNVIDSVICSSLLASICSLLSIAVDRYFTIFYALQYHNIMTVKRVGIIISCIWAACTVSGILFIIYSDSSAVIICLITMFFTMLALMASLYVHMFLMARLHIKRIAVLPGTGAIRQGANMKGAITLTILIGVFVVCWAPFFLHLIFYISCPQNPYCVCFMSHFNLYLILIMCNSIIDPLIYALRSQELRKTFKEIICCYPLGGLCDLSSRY
Positions of bridges follow the written chain, without caps; N, C: chain ends. Non-standard residues stand in square brackets, D forms with d. d2Nal = N[C@H](Cc1ccc2ccccc2c1)C(=O)O; 4Pal = N[C@@H](Cc1ccncc1)C(=O)O; Cit = NC(=O)NCCC[C@H](N)C(=O)O; Aib = CC(C)(N)C(=O)O
Please respond with reported MC4R selectivity vs MC3R for every item in the list.
Numbers only.

Some entries whose results are on file:
{"columns": ["Binder", "Measured endpoint", "Measured result"],
 "data": [
  ["{CH2CO}-[Aib][Cit][dF]RWC-NH2 (thioether N-6; SMILES CC1(C)NC(=O)CSC[C@@H](C(N)=O)NC(=O)[C@H](Cc2c[nH]c3ccccc23)NC(=O)[C@H](CCCNC(=N)N)NC(=O)[C@@H](Cc2ccccc2)NC(=O)[C@H](CCCNC(N)=O)NC1=O) [CTX-1649]", "MC4R selectivity vs MC3R", 72],
  ["Ac-RC[Aib][4Pal][dF]RFC-NH2 (disulfide 2-8; SMILES CC(=O)N[C@@H](CCCNC(=N)N)C(=O)N[C@H]1CSSC[C@@H](C(N)=O)NC(=O)[C@H](Cc2ccccc2)NC(=O)[C@H](CCCNC(=N)N)NC(=O)[C@@H](Cc2ccccc2)NC(=O)[C@H](Cc2ccncc2)NC(=O)C(C)(C)NC1=O) [CTX-1606]", "MC4R selectivity vs MC3R", 0.62],
  ["Ac-C[dA][Cit][dF]RWC-NH2 (disulfide 1-7; SMILES CC(=O)N[C@H]1CSSC[C@@H](C(N)=O)NC(=O)[C@H](Cc2c[nH]c3ccccc23)NC(=O)[C@H](CCCNC(=N)N)NC(=O)[C@@H](Cc2ccccc2)NC(=O)[C@H](CCCNC(N)=O)NC(=O)[C@@H](C)NC1=O) [CTX-1628]", "MC4R selectivity vs MC3R", 6.37],
  ["Ac-RC[dA]R[dF]R[d2Nal]C-NH2 (disulfide 2-8) [CTX-1264]", "MC4R selectivity vs MC3R", 0.29]
]}

Pending binder:
Quick one: MC4R selectivity vs MC3R for {CH2CO}-[Aib]R[dF]RWC-NH2 (thioether N-6; SMILES CC1(C)NC(=O)CSC[C@@H](C(N)=O)NC(=O)[C@H](Cc2c[nH]c3ccccc23)NC(=O)[C@H](CCCNC(=N)N)NC(=O)[C@@H](Cc2ccccc2)NC(=O)[C@H](CCCNC(=N)N)NC1=O) [CTX-1648] ?
63
